Test system: OVCAR-3
Assay protocol: NCI tumour cell line growth inhibition, 48 h
Calls of active or inactive are those of the source. Rule as the data show it: active = GI50 up to about 1.1 µM and inactive = higher.
Property: GI50

compound="COc1ccc2c(c1)C1C(CO2)C(c2ccccc2)=NN1c1ccccc1 (stereo not given)" property=GI50 result="> 100 µM (inactive)"
compound="CN(C)CCN1C(=O)c2cccc3cc([N+](=O)[O-])cc(c23)C1=O [MITONAFIDE]" property=GI50 result="1.37 µM (inactive)"
compound=CSc1nc2c3ccccc3ccn2c1C(=O)N/N=C/c1ccccc1 property=GI50 result="17.9 µM (inactive)"

Task: Consider the compound shown here: `N=C1SCCS1` What is its recorded GI50?
Output: > 100 µM (inactive)

Task: Item: `CCOC(=O)c1ccn2c(c1)c(C#N)c1nc3ccccc3nc12`
Output: > 100 µM (inactive)
